test system: Escherichia coli BE1121 strain; assay: MIC for Escherichia coli BE1121 strain; format: cell-based; conditions: Escherichia coli, BE1121STRAIN; BE1121 strain; regular bouillon medium, 37° C. overnight, turbidity; read-out: MIC Escherichia coli BE1121
# MIC per entry
Remember to quote the unit after the number.

Sample records with MIC:
O=C(Nc1ccccc1)N1C(=O)C(=C(O)CCCCCCCCCBr)c2ccccc21 [A025]: 256 µg/mL
CCCCCCCCCC(O)=C1C(=O)N(C(=O)OC(C)(C)C)c2cc(Cl)ccc21 [A003, N-Boc-3-decanoyl-6-chloro-2-oxyindole]: 128 µg/mL
CCCCCCCCCC(=O)c1c(O)c2cc(Cl)ccc2oc1=O [B003, 6-chloro-3-decanoyl-4-hydroxycoumarin]: 256 µg/mL

For reference, reported MIC for CCCCCCCCCCOCC(O)=C1C(=O)N(C(=O)OC(C)(C)C)c2ccc(F)cc21 [A055] stands at 256 µg/mL
